- Tested on: Lactobacillus gasseri
- Measurement Protocol: growth AUC relative to DMSO control (median of replicates) (fraction); higher = more growth (less inhibition), active = hit call of the paper
- Condition Info: 20 µM; 24 h
Readout Label: growth AUC
Form rule: numeric answer, no unit written next to it.

The following compounds have reported results that may help.
For the compound "c1ccc2c(c1)cc1ccc3cccc4ccc2c1c34" , give its reported growth AUC.
1.04

In one line, give reported growth AUC of the entry "CC(C)N(C(=O)SCC(Cl)=C(Cl)Cl)C(C)C" .
0.948

Entry COC(=O)C(C)Oc1ccc(Oc2ccc(Cl)cc2Cl)cc1 (stereo not drawn) needs its growth AUC filled in; supply it.
1.06

Others:
Give a short answer stating reported growth AUC for "CSc1nc(NC(C)C)nc(NC(C)C)n1" .
1.12

In one line, give reported growth AUC of the entry "CCCCOC(=O)c1ccccc1C(=O)OCCCC" .
0.911

Give a short answer stating reported growth AUC for O=C(NC(=O)c1c(F)cccc1F)Nc1ccc(OC(F)(F)C(F)OC(F)(F)F)c(Cl)c1 (stereo not drawn) .
1.49
